Attribution: ChEMBL document CHEMBL1144373

Test: Mean inhibitory concentration against rat N-methyl-D-aspartate (NMDA) glutamate receptor 1a/2D expressed in Xenopus oocytes
Format: cell-based
Conditions: oocyte
VALUE_KIND: pIC50
API: returns pIC50 as number; meaning -log10 of concentration in mol/L.

Consider the following illustrative entries.
[
  {
    "COMPOUND_SMILES": "COc1ccc([C@@H](O)C[C@H]2c3cc(OC)c(OC)cc3CCN2C)cc1",
    "TEST_RESULT": 3.47
  },
  {
    "COMPOUND_SMILES": "COc1cc2c(cc1OC)[C@H](C[C@H](O)c1ccc(Cl)cc1)N(C)CC2",
    "TEST_RESULT": 4.56
  }
]

Incoming: Please give the measured pIC50 for this compound: COc1cc2c(cc1OC)[C@H](C[C@H](O)c1ccc(Cl)cc1)NCC2
Outgoing: 4.32

----------
Examples of compounds with documented IC50 follow.
Target: Glutamate NMDA receptor; Grin1/Grin2a (Rattus norvegicus, UniProt P35439+Q00959)
Sequence (Q00959 whole entry, other chains not shown): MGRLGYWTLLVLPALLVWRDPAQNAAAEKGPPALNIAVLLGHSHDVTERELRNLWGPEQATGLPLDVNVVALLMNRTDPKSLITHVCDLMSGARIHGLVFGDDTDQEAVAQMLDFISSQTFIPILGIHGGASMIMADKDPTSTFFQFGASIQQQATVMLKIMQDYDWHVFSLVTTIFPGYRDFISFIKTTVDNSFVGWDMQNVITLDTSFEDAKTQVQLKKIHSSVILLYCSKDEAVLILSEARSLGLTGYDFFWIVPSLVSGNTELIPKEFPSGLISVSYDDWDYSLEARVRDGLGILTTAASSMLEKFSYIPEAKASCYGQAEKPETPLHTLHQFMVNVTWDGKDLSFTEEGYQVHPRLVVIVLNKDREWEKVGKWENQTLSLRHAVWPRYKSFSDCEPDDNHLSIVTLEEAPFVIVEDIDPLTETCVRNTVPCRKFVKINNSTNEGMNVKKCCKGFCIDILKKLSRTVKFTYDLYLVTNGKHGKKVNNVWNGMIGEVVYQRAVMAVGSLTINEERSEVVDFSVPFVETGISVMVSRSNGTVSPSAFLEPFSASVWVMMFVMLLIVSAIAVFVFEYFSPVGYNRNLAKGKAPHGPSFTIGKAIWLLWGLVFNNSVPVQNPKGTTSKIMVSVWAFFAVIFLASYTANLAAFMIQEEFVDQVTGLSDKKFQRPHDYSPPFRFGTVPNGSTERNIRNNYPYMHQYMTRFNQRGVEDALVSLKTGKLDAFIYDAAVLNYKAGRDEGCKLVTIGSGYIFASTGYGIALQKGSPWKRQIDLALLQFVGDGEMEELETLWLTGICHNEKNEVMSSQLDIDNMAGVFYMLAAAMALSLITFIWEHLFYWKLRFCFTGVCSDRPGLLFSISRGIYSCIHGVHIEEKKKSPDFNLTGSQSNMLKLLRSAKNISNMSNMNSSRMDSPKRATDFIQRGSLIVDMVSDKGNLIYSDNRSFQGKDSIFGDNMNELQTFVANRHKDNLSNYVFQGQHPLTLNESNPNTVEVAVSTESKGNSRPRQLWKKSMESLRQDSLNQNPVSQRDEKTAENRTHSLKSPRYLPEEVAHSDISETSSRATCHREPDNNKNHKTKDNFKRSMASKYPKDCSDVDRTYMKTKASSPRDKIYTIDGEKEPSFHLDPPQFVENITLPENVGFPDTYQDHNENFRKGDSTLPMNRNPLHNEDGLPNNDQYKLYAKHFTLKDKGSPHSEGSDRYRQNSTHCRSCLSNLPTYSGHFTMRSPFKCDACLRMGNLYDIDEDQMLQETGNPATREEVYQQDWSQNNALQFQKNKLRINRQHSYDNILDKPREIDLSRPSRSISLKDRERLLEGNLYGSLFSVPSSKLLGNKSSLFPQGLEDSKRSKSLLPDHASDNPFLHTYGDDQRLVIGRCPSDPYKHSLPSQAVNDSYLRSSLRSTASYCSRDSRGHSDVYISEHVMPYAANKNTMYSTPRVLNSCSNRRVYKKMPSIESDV
Assay: Mean inhibitory concentration against rat N-methyl-D-aspartate (NMDA) glutamate receptor 1a/2A expressed in Xenopus oocytes
Response body: numeric value in µM, unit text excluded.

Consider the following illustrative entries.
[
  {
    "COMPOUND_SMILES": "COc1cc2c(cc1OC)[C@H](C[C@H](O)c1ccc(Cl)cc1)N(C)CC2",
    "UNIT_STRING": "µM",
    "TEST_RESULT": 137
  },
  {
    "COMPOUND_SMILES": "COc1ccc([C@@H](O)C[C@H]2c3cc(OC)c(OC)cc3CCN2C)cc1",
    "UNIT_STRING": "µM",
    "TEST_RESULT": 107
  }
]

Incoming: Please give the measured IC50 for this compound: COc1cc2c(cc1OC)[C@H](C[C@H](O)c1ccc(Cl)cc1)NCC2
Outgoing: 104

----------
Biological target: Glutamate [NMDA] receptor
Test: Mean inhibitory constant against porcine N-methyl-D-aspartate (NMDA) glutamate receptor; n=3
Type: protein-complex assay, Sus scrofa
VALUE_KIND: Ki (nM)
Response body: numeric value in nM, unit text excluded.

[
  {
    "COMPOUND_SMILES": "COc1ccc([C@H](O)C[C@H]2NCCc3cc(OC)c(OC)cc32)cc1",
    "Ki (nM)": 720
  },
  {
    "COMPOUND_SMILES": "COc1cc2c(cc1OC)[C@@H](C[C@H](O)c1ccc(Cl)cc1)NCC2",
    "Ki (nM)": 6700
  },
  {
    "COMPOUND_SMILES": "COc1cc2c(cc1OC)[C@H](C[C@@H](O)c1ccc(Cl)cc1)N(C)CC2",
    "Ki (nM)": 2700
  },
  {
    "COMPOUND_SMILES": "COc1cc2c(cc1OC)[C@H](C[C@H](O)c1ccc(Cl)cc1)N(C)CC2",
    "Ki (nM)": 500
  },
  {
    "COMPOUND_SMILES": "COc1cc2c(cc1OC)[C@H](C[C@H](O)c1ccc(Cl)cc1)NCC2",
    "Ki (nM)": 920
  }
]

Incoming: Checklist item: Ki tested on Glutamate [NMDA] receptor, entry COc1cc2c(cc1OC)[C@@H](C[C@@H](O)c1ccc(Cl)cc1)N(C)CC2 , value?
Outgoing: 7

Incoming: Checklist item: Ki tested on Glutamate [NMDA] receptor, entry COc1ccc([C@@H](O)C[C@H]2c3cc(OC)c(OC)cc3CCN2C)cc1 , value?
Outgoing: 2700

Incoming: Checklist item: Ki tested on Glutamate [NMDA] receptor, entry COc1ccc([C@@H](O)C[C@H]2NCCc3cc(OC)c(OC)cc32)cc1 , value?
Outgoing: 11000

Incoming: Checklist item: Ki tested on Glutamate [NMDA] receptor, entry COc1ccc([C@H](O)C[C@@H]2NCCc3cc(OC)c(OC)cc32)cc1 , value?
Outgoing: 5800

Incoming: Checklist item: Ki tested on Glutamate [NMDA] receptor, entry COc1ccc([C@H](O)C[C@@H]2c3cc(OC)c(OC)cc3CCN2C)cc1 , value?
Outgoing: 60

Incoming: Checklist item: Ki tested on Glutamate [NMDA] receptor, entry COc1cc2c(cc1OC)[C@H](C[C@@H](O)c1ccc(Cl)cc1)NCC2 , value?
Outgoing: 2600

Incoming: Checklist item: Ki tested on Glutamate [NMDA] receptor, entry COc1cc2c(cc1OC)[C@@H](C[C@@H](O)c1ccc(Cl)cc1)NCC2 , value?
Outgoing: 260

Incoming: Checklist item: Ki tested on Glutamate [NMDA] receptor, entry COc1ccc([C@@H](O)C[C@@H]2c3cc(OC)c(OC)cc3CCN2C)cc1 , value?
Outgoing: 380

Incoming: Checklist item: Ki tested on Glutamate [NMDA] receptor, entry COc1cc2c(cc1OC)[C@@H](C[C@H](O)c1ccc(Cl)cc1)N(C)CC2 , value?
Outgoing: 110
